The reported measurements were obtained from patent US20210380703A1.

# assay-system: human Fc (human)
# assay-explanation: ELISA, negative control
In this section we review reported optical density values for a set of binders.

binder	optical density, OD
374_G09 (antibody, V domains shown) VH: EVQLLESGGGLVQPGGSLRLSCAASGFTFSSYSMNWVRQAPGKGLEWVAGINYNGGYKGYADSVKGRFTISRDNSKNTLYLQMNSLRAEDTAVYYCARGANWHDTHLDYWGQGTLVTVSS VL: DIQMTQSPSSLSASVGDRVTITCRASQSIVRYLNWYQQKPGKAPKLVIYAATSLASGVPSRFSGSGSGTDFTLTISSLQPEDFATYYCQQSYELPLTFGGGTKVEIK	0.223
371_H05 (antibody, V domains shown) VH: EVQLLESGGGLVQPGGSLRLSCAASGFTFSSYGMNWVRQAPGKGLEWVSGINYNSGYKSYADSVKGRFTISRDNSKNTLYLQMNSLRAEDTAVYYCARGANWHDTALDYWGQGTLVTVSS VL: DIQMTQSPSSLSASVGDRVTITCRASQSIISYLNWYQQKPGKAPKLLIYAATSLASGVPSRFSGSGSGTDFTLTISSLQPEDFATYYCQQSYSLPLTFGGGTKVEIK	0.321
370_F03 (antibody, V domains shown) VH: EVQLLESGGGLVQPGGSLRLSCAASGFTFSSYGMNWVRQAPGKGLEWVSSINYNSGYKSYADSVKGRFTISRDNSKNTLYLQMNSLRAEDTAVYYCARGANWHDTALDYWGQGTLVTVSS VL: DIQMTQSPSSLSASVGDRVTITCRASQSILSYVNWYQQKPGKAPKLLIYAATSRASGVPSRFSGSGSGTDFTLTISSLQPEDFATYYCQQSYENPLTFGGGTKVEIK	0.373
365_D08 (antibody, V domains shown) VH: EVQLLESGGGLVQPGGSLRLSCAASGFTFDSYSMHWVRQAPGKGLEWVSSINYNGGYTSYADSVKGRFTISRDNSKNTLYLQMNSLRAEDTAVYYCARAATWHDTHLDYWGQGTLVTVSS VL: DIQMTQSPSSLSASVGDRVTITCRASQSIITYVNWYQQKPGKAPKLLIYAATSRASGVPSRFSGSGSGTDFTLTISSLQPEDFATYYCQQSYDTPLTFGGGTKVEIK	0.35
375_C04 (antibody, V domains shown) VH: EVQLLESGGGLVQPGGSLRLSCAASGFTFSDYSMNWVRQAPGKGLEWVAGINYNGGYTSYADSVKGRFTISRDNSKNTLYLQMNSLRAEDTAVYYCARGANWHDTALDYWGQGTLVTVSS VL: DIQMTQSPSSLSASVGDRVTITCRASQSILTYLNWYQQKPGKAPKLVIYAATSRASGVPSRFSGSGSGTDFTLTISSLQPEDFATYYCQQSYESPLTFGGGTKVEIK	0.221
369_H03 (antibody, V domains shown) VH: EVQLLESGGGLVQPGGSLRLSCAASGFTFSSYSMHWVRQAPGKGLEWVASINYNSGYKSYADSVKGRFTISRDNSKNTLYLQMNSLRAEDTAVYYCARAANWHDTALDYWGQGTLVTVSS VL: DIQMTQSPSSLSASVGDRVTITCRASQSIVSYLNWYQQKPGKAPKLLIYATTSRASGVPSRFSGSGSGTDFTLTISSLQPEDFATYYCQQSYDTPLTFGGGTKVEIK	0.498
375_H04 (antibody, V domains shown) VH: EVQLLESGGGLVQPGGSLRLSCAASGFTFSSYGMHWVRQAPGKGLEWVAGINYNSGYTGYADSVKGRFTISRDNSKNTLYLQMNSLRAEDTAVYYCARAATWHDTHLDYWGQGTLVTVSS VL: DIQMTQSPSSLSASVGDRVTITCRASQSILSYLNWYQQKPGKAPKLVIYAATSRASGVPSRFSGSGSGTDFTLTISSLQPEDFATYYCQQSYSNPLTFGGGTKVEIK	0.181
367_D12 (antibody, V domains shown) VH: EVQLLESGGGLVQPGGSLRLSCAASGFTFSSYSMNWVRQAPGKGLEWVSSINYNGGYTGYADSVKGRFTISRDNSKNTLYLQMNSLRAEDTAVYYCARGANWHDTHLDYWGQGTLVTVSS VL: DIQMTQSPSSLSASVGDRVTITCRASQSIVSYVNWYQQKPGKAPKLVIYAATSRASGVPSRFSGSGSGTDFTLTISSLQPEDFATYYCQQSYESPLTFGGGTKVEIK	0.309
365_F10 (antibody, V domains shown) VH: EVQLLESGGGLVQPGGSLRLSCAASGFTFDDYGMHWVRQAPGKGLEWVSGINYNGGYTSYADSVKGRFTISRDNSKNTLYLQMNSLRAEDTAVYYCARAATWHDTHLDYWGQGTLVTVSS VL: DIQMTQSPSSLSASVGDRVTITCRASQSIVTYVNWYQQKPGKAPKLLIYAATSRASGVPSRFSGSGSGTDFTLTISSLQPEDFATYYCQQSYELPLTFGGGTKVEIK	0.386
368_A03 (antibody, V domains shown) VH: EVQLLESGGGLVQPGGSLRLSCAASGFTFSSYSMNWVRQAPGKGLEWVSGINYNGGYTGYADSVKGRFTISRDNSKNTLYLQMNSLRAEDTAVYYCARGANWHDTHLDYWGQGTLVTVSS VL: DIQMTQSPSSLSASVGDRVTITCRASQSIISYLNWYQQKPGKAPKLLIYAVTSRASGVPSRFSGSGSGTDFTLTISSLQPEDFATYYCQQSYENPLTFGGGTKVEIK	0.348
